These entries and their values trace back to patent US11964967B2.

Tested Target: bovine cardiac myofibrils (Bos taurus, UniProt Q9BE39)
Construct: full-length cardiac myosin in the context of the native sarcomere; from tissue; host or cells: bovine cardiac left ventricular tissue, homogenized with detergent (triton X-100)
Sequence (Q9BE39 whole entry): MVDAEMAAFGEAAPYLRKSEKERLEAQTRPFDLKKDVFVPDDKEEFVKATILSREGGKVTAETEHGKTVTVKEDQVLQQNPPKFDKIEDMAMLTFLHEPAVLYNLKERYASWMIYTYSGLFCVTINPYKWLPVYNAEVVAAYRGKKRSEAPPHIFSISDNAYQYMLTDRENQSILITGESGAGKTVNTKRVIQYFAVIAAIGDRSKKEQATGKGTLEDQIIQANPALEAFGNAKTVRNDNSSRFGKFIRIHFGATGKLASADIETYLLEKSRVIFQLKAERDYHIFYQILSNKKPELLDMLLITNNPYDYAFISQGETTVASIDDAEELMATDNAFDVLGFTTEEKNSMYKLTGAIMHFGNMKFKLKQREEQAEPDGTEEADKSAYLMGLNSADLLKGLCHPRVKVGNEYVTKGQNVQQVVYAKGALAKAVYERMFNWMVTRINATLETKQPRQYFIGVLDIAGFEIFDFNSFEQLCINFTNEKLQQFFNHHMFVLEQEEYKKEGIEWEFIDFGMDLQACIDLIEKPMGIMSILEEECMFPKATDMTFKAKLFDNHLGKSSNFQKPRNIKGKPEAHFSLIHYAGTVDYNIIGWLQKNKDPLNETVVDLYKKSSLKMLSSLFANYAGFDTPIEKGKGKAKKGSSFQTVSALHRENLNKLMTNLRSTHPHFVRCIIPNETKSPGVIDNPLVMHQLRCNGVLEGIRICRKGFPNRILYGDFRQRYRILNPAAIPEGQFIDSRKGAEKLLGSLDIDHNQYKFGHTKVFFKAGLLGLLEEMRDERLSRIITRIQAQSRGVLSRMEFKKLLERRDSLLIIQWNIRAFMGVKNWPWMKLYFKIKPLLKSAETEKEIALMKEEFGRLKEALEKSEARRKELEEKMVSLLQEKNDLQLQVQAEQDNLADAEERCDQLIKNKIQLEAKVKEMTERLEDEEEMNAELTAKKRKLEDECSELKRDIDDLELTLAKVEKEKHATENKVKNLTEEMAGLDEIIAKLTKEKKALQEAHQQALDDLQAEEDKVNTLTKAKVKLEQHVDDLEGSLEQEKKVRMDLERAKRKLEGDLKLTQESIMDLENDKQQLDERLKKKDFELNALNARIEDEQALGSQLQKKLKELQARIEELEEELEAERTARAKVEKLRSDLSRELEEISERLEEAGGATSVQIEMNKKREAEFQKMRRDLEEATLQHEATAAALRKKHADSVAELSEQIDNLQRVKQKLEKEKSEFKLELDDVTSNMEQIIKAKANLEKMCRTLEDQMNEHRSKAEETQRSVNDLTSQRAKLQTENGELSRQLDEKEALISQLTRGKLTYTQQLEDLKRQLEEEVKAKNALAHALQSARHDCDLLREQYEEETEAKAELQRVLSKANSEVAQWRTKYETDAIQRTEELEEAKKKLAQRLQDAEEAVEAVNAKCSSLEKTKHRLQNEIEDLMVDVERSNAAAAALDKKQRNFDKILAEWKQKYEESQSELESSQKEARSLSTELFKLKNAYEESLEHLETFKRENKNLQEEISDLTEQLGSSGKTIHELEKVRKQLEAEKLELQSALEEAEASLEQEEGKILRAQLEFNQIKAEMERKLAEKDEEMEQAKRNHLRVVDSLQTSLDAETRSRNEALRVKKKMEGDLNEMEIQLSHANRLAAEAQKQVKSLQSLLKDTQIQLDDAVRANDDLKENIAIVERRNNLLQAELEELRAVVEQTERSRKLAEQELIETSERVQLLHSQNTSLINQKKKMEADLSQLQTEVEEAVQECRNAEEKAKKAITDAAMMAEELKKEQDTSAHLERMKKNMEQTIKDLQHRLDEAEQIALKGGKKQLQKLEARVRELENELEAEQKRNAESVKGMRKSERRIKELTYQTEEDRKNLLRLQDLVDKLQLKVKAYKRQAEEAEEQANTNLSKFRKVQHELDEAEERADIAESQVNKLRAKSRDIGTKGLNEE
Sequence (P85100 whole entry partner): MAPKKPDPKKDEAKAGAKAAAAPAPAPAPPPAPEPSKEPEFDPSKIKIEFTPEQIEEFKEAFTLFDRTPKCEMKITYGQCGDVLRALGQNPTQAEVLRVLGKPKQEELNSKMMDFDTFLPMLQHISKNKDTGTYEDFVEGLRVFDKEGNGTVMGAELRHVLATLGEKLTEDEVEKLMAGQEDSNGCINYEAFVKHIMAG
Sequence (Q3SZE5 whole entry partner): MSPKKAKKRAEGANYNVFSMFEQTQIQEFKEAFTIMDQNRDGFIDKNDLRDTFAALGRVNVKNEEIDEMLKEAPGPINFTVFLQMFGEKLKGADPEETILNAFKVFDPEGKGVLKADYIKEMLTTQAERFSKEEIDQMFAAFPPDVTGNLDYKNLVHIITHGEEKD
Measurement Protocol: Skinned bovine cardiac myofibril ATPase assay (PK/LDH-coupled)
Type: biochemical
Condition Details: inhibition of steady-state ATPase activity of bovine cardiac myofibrils; calcium at 75% activation (pCa75); PM12 buffer pH 6.8
Property Label: CDMF75 IC15 (µM)

Study these solved cases before continuing.
Cc1nc(-c2ccc3c(c2)CCC32COC(=O)N2)no1 (single isomer, unassigned) [Compound 29B]: 2.1
CCc1nc(-c2ccc3c(c2)CCC32COC(=O)N2)no1 (single isomer, unassigned) [Compound 26A]: 31.0
Cc1cc(NC(=O)C2CCc3cc(-c4noc(C(F)F)n4)ccc32)ccn1 (single isomer, unassigned) [Compound 14A]: 2.2
O=C1NC2(CCc3cc(-c4noc(C(F)F)n4)ccc32)CO1 (racemic) [Compound 38]: 2.5
O=C1NC2(CCc3cc(-c4noc(C5CC5)n4)ccc32)CO1 (single isomer, unassigned) [Compound 35B]: 0.6

[a] Cc1nc(-c2ccc3c(c2)CCC32COC(=O)N2)no1 (racemic) [Compound 29]
[b] CCNC(=O)C1CCc2cc(-c3noc(CC)n3)ccc21 (single isomer, unassigned) [Compound 11B]
[c] Cc1cc(NC(=O)C2CCc3cc(-c4noc(C)n4)ccc32)ccn1 (single isomer, unassigned) [Compound 17A]
Order these by CDMF75 IC15, descending, and give the full ranking. Respond with an ordered listing of the labels, as requested.
b, a, c
